experiment: Properties of cysteine solutions (solubility, natural pH); type: physicochemical; details: cysteine in its base form
PROPERTY_NAME: solubility

Inquiry: Form field: reported solubility of N[C@@H](CS)C(=O)O [cysteine]
Reply text: ≤ 50 mg/mL

Attribution: patent US9156826B2
